Biological target: Nurr1 LBD His516Ala (Homo sapiens, UniProt P43354, H516A)
Construct: Mutants of LAP2 Nurr1 were prepared by GenScript starting from LAP2 Nurr1 vector; made in house
Sequence (P43354 with tags, fused parts or gaps H516A): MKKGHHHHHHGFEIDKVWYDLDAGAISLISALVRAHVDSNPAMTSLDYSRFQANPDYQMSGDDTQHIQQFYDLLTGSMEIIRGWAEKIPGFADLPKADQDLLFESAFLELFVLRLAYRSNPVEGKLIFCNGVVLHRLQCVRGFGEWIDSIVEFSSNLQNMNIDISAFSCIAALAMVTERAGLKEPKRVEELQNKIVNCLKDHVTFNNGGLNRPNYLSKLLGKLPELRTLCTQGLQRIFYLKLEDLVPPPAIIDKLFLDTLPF
Experiment: MST binding to His516Ala mutant Nurr1 LBD
Conditions: Table 1, Nurr1 variant H516; read-out: KD
// reported Kd per item
Observable: Kd (µM)

>>> measured_number("Clc1cc2cc[nH]c2cc1Cl")
12
>>> measured_number("Brc1cc2cc[nH]c2cc1Br")
6.3
>>> measured_number("Brc1ccc2[nH]ccc2c1")
11
>>> measured_number("Clc1ccc2[nH]ccc2c1")
16

---

Biological target: Nurr1 LBD Arg563Ala (Homo sapiens, UniProt P43354, R563A)
Construct: Mutants of LAP2 Nurr1 were prepared by GenScript starting from LAP2 Nurr1 vector; made in house
Sequence (P43354 with tags, fused parts or gaps R563A): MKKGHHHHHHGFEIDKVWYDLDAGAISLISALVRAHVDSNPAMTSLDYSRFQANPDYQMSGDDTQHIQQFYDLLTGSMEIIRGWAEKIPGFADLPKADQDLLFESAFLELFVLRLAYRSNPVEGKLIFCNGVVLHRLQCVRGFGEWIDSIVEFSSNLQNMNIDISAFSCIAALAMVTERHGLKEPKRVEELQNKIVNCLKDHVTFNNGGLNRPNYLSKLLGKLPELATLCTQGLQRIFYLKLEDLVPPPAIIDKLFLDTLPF
Test: MST binding to Arg563Ala mutant Nurr1 LBD
Conditions: Table 1, MST amplitude, R563A
Observable: Amplitude

>>> result("Brc1cc2cc[nH]c2cc1Br")
"32 + 3"
>>> result("Clc1cc2cc[nH]c2cc1Cl")
"47 + 3"
>>> result("Clc1ccc2[nH]ccc2c1")
"23 + 2"
>>> result("Brc1ccc2[nH]ccc2c1")
"≤10"

---

Target: Nurr1 LBD His516Ala (Homo sapiens, UniProt P43354, H516A)
Construct: Mutants of LAP2 Nurr1 were prepared by GenScript starting from LAP2 Nurr1 vector; made in house
Test: MST binding to His516Ala mutant Nurr1 LBD
Details: Table 1, MST amplitude, H516
Protocol: The plasmid used for the expression of LAP2-tagged Nurr1 LBDs (LAP2 Nurr1) was prepared by GenScript (Piscataway, N.J.) as the product of gene synthesis and subcloning into pET-21a(+) Vector (GenScript) using the Ndel and Xhol sites within the MCS. Mutants of LAP2 Nurr1 were prepared by GenScript starting from LAP2 Nurr1 vector. Concentration-dependent association of the indoles with the Nurr1 LBD was carried out using microscale thermophoresis. […]
Observable: Amplitude

>>> result("Clc1ccc2[nH]ccc2c1 [5-chloroindole]")
"34 + 4"
>>> result("Brc1cc2cc[nH]c2cc1Br [5,6-dibromoindole]")
"35 + 2"
>>> result("Clc1cc2cc[nH]c2cc1Cl [5,6-dichloroindole]")
"67 + 9"
>>> result("Brc1ccc2[nH]ccc2c1 [5-bromoindole]")
"41 + 5"

---

Target: Nurr1 LBD His516Ala (Homo sapiens, UniProt P43354, H516A)
Construct: Mutants of LAP2 Nurr1 were prepared by GenScript starting from LAP2 Nurr1 vector; made in house
Assay: MST binding to His516Ala mutant Nurr1 LBD
Conditions: Table 2, MST, His516Ala
// reported Response Amplitude per item
Observable: Response Amplitude

>>> result("Brc1cc2cc[nH]c2cc1Br")
"35 + 2 (ns)"
>>> result("Brc1ccc2[nH]ccc2c1")
"33 + 5 (*)"
>>> result("Clc1ccc2[nH]ccc2c1")
"25 + 2 (****)"
>>> result("Clc1cc2cc[nH]c2cc1Cl")
"67 + 9 (ns)"

---

Target: Nurr1 LBD His516Ala (Homo sapiens, UniProt P43354, H516A)
Construct: Mutants of LAP2 Nurr1 were prepared by GenScript starting from LAP2 Nurr1 vector; made in house
Assay: MST binding to His516Ala mutant Nurr1 LBD
Conditions: Table 1, H516 relative to WT
// reported Amplitude (% change) per item
Observable: Amplitude (% change) (%)

>>> measured_number("Brc1ccc2[nH]ccc2c1")
"−43"
>>> measured_number("Clc1ccc2[nH]ccc2c1")
"−50"

---

// reported pKd per item
Target: Nurr1 LBD (wildtype) (Homo sapiens, UniProt P43354)
Construct: made in house
Sequence (P43354 with tags, fused parts or gaps): as the sequence (P43354 with tags, fused parts or gaps H516A) above, with A180H counted along it
Experiment: Microscale thermophoresis (MST) binding to wildtype Nurr1 LBD
Conditions: Table 2, Wildtype; read-out: Affinity (KD)
pKd: −log10 of the molar value.
Observable: pKd

>>> measured_number("Brc1cc2cc[nH]c2cc1Br")
5.66
>>> measured_number("Clc1cc2cc[nH]c2cc1Cl")
5.35

---

Biological target: Nurr1 LBD Arg563Ala + His516Ala (Homo sapiens, UniProt P43354, H516A/R563A)
Construct: Mutants of LAP2 Nurr1 were prepared by GenScript starting from LAP2 Nurr1 vector; made in house
Sequence (P43354 with tags, fused parts or gaps H516A/R563A): as the sequence (P43354 with tags, fused parts or gaps H516A) above, with R227A counted along it
Test: MST binding to Arg563Ala + His516Ala double mutant Nurr1 LBD
Conditions: Table 2, MST, Arg563Ala + His516Ala
// reported Response Amplitude per item
Observable: Response Amplitude

>>> result("Clc1ccc2[nH]ccc2c1 [5-chloroindole]")
"23 + 1 (****)"
>>> result("Brc1ccc2[nH]ccc2c1 [5-bromoindole]")
"≤10 (****)"
>>> result("Clc1cc2cc[nH]c2cc1Cl [5,6-dichloroindole]")
"54 + 5 (ns)"
>>> result("Brc1cc2cc[nH]c2cc1Br [5,6-dibromoindole]")
"43 + 5 (ns)"

---

Biological target: Nurr1 LBD His516Ala (Homo sapiens, UniProt P43354, H516A)
Construct: Mutants of LAP2 Nurr1 were prepared by GenScript starting from LAP2 Nurr1 vector; made in house
Test: MST binding to His516Ala mutant Nurr1 LBD
Conditions: Table 2, His516Ala; read-out: Affinity (KD)
pKd: −log10 of the molar value.
Observable: pKd

>>> measured_number("Brc1ccc2[nH]ccc2c1")
5.14
>>> measured_number("Clc1cc2cc[nH]c2cc1Cl")
4.92
>>> measured_number("Clc1ccc2[nH]ccc2c1")
5.07
>>> measured_number("Brc1cc2cc[nH]c2cc1Br")
5.19
